Data origin, for the record: ChEMBL document CHEMBL1132169

target: Sodium-dependent dopamine transporter (Rattus norvegicus); assay: Inhibitory binding activity against rat striatal tissue using [3H][…] as the radioligand.; assay type: tissue-based, Striatum
Sequence (P23977 whole entry): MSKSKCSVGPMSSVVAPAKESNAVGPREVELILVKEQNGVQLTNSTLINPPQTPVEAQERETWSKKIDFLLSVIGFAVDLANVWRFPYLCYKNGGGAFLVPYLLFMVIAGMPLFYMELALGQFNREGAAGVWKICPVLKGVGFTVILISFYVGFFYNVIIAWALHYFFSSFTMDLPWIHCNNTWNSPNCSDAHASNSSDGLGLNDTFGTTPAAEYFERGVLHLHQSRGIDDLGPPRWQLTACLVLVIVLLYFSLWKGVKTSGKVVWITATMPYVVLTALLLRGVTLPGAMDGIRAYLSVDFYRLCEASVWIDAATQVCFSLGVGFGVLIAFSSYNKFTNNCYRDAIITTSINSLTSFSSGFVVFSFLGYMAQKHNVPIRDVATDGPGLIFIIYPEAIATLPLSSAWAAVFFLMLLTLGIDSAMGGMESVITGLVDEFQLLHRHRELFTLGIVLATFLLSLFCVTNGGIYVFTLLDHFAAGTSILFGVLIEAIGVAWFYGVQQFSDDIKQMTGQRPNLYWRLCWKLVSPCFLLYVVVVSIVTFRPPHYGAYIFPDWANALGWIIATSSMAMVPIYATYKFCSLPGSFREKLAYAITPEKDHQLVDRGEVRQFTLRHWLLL
Form field: IC50 (one value per entry).
Measured Metric: IC50

NCC1C2CCC(C2)C1c1ccc(Cl)cc1 (stereo in doubt; 9c) | 46 nM
COc1ccc(C2C3CCC(C3)C2CN)cc1 (stereo in doubt; 9g) | 1160 nM
NCC1C2CCC(CC2)C1c1ccc(Cl)cc1 (stereo in doubt; 5c) | 71.4 nM
NCC1C2CCC(C2)C1c1ccc(Cl)c(Cl)c1 (stereo in doubt; 13d) | 21.3 nM
NCC1C2CCC(CC2)C1c1ccc(N)cc1 (stereo not given) | 160 nM
COc1cccc(C2C3CCC(C3)C2CN)c1 (stereo in doubt; 11f) | 2010 nM
NCC1C2CCC(C2)C1c1ccc(Cl)c(Cl)c1 (stereo in doubt; 11d) | 32.7 nM
NCC1C2CCC(C2)C1c1ccc(Cl)cc1 (stereo in doubt; 13c) | 65.3 nM
CN(C)CC1C2CCC(C2)C1c1ccccc1 (stereo in doubt; 14a) | 2140 nM
NCC1C2CCC(C2)C1c1ccccc1 (stereo in doubt; 9a) | 340 nM
